# Tested on: GLXMA
# run_description: Pre-emergence effects on crop plants (Table D4)
# Assay type: in vivo, Glycine max
# recorded_conditions: crop plant; application rate 80 g/ha; visual grading after ca. 3 weeks
measured_endpoint: pre-emergence activity against GLXMA (%)
One number for each entry, in %.

Use the examples below as a reference point.
Dear colleague, I am looking for the recorded pre-emergence activity against GLXMA of the following molecule: O=C1N(Cc2cc(F)ccc2Cl)CCCC12CCCN(Cc1cc(F)ccc1Cl)C2=O (racemic)
0

Fill blank: measured pre-emergence activity against GLXMA of the molecule O=C1N(Cc2ccccc2F)CCCC12CCN(Cc1ccccc1Cl)C2=O (racemic) is ____.
0

Looking for the measured pre-emergence activity against GLXMA of O=C1N(Cc2cccs2)CCCC12CCCN(Cc1c(F)cccc1F)C2=O (racemic) , can you help?
20

Which pre-emergence activity against GLXMA value is on record for O=C1N(Cc2ccccc2F)CCCC12CCCN(Cc1cccc(F)c1F)C2=O (racemic) ?
10

For the molecule O=C1N(Cc2ccsc2)CCCC12CCCN(Cc1cccc(F)c1F)C2=O (racemic) , what pre-emergence activity against GLXMA is on record?
0

Hey, can you go through the list below and give me pre-emergence activity against GLXMA for every item?
1. O=C1N(Cc2ccccc2)CCCC12CCCN(Cc1ccccc1Cl)C2=O (racemic)
2. O=C1N(Cc2cccc(F)c2F)CCCC12CCN(Cc1c(F)cccc1F)C2=O (racemic)

1: 0; 2: 0

---

# System: BRSNW
# run_description: Pre-emergence effects on crop plants (Table D5)
# Format: in vivo, Brassica napus
# recorded_conditions: crop plant; application rate 80 g/ha; visual grading after ca. 3 weeks
Provide the reported pre-emergence activity against BRSNW of each item.
Numbers only, in %.

Sample answers from the record:
For the molecule shown here, O=C1N(Cc2ccccc2F)CCC12CCCN(Cc1c(F)cccc1F)C2=O (racemic) , give the reported pre-emergence activity against BRSNW.
20

Param item = O=C1N(Cc2ccccc2F)CCCC12CCCN(Cc1cccc(F)c1F)C2=O (racemic) ; retrieve measured pre-emergence activity against BRSNW.
10

Consider the following items and state reported pre-emergence activity against BRSNW for each.
1. O=C1N(Cc2cccs2)CCCC12CCCN(Cc1c(F)cccc1F)C2=O (racemic)
2. O=C1N(Cc2c(F)ccc(F)c2F)CCCC12CCCN(Cc1c(F)ccc(F)c1F)C2=O (racemic)

[20, 10]

---

# Tested on: DIGSA
# run_description: Herbicidal pre-emergence action (Table A12)
# Assay type: in vivo, Digitaria sanguinalis
# recorded_conditions: application rate 320 g/ha; visual grading after ca. 3 weeks
measured_endpoint: pre-emergence activity against DIGSA (%)
Numbers only, in %.

Give one value of pre-emergence activity against DIGSA per listed molecule.
1. O=C1N(Cc2ccc(F)c(F)c2F)CCCC12CCCN(Cc1ccc(F)c(F)c1F)C2=O (racemic)
2. O=C1N(Cc2cc(F)ccc2Cl)CCCC12CCCN(Cc1cc(F)ccc1Cl)C2=O (racemic)
3. O=C1N(Cc2ccccc2Cl)CCC12CCCN(Cc1c(F)cccc1F)C2=O (racemic)
4. O=C1N(Cc2ccccc2Cl)CCCC12CCN(Cc1c(F)cccc1F)C2=O (racemic)
5. O=C1N(Cc2ccccc2Cl)CCCC12CCN(Cc1cccc(F)c1F)C2=O (racemic)
6. O=C1N(Cc2ccccc2Cl)CCC12CCCN(Cc1cccc(F)c1F)C2=O (racemic)
7. O=C1N(Cc2c(F)cccc2F)CCCC12CCN(Cc1c(F)cccc1F)C2=O (racemic)
8. O=C1N(Cc2ccccc2F)CCCC12CCN(Cc1ccccc1F)C2=O (racemic)

1: 90; 2: 100; 3: 90; 4: 90; 5: 100; 6: 90; 7: 100; 8: 100

Would you mind listing pre-emergence activity against DIGSA for each of the following molecules?
1. O=C1N(Cc2ccccc2)CCC12CCCN(Cc1cccc(F)c1F)C2=O (racemic)
2. O=C1N(Cc2cccc(F)c2F)CCCC12CCCN(Cc1c(F)cccc1F)C2=O (racemic)
3. Cc1ccccc1CN1CCCC2(CCN(Cc3c(F)cccc3F)C2=O)C1=O (racemic)

90
100
90

Hi team, please reply with pre-emergence activity against DIGSA for each item in this list.
1. O=C1N(Cc2ccccc2F)CCCC12CCN(Cc1ccccc1Cl)C2=O (racemic)
2. O=C1N(Cc2c(F)cc(F)cc2F)CCCC12CCCN(Cc1c(F)cc(F)cc1F)C2=O (racemic)
3. Cc1ccccc1CN1CCC2(CCCN(Cc3ccccc3F)C2=O)C1=O (racemic)
4. O=C1N(Cc2ccccc2F)CCCC12CCN(Cc1cccc(F)c1F)C2=O (racemic)
5. Cc1ccccc1CN1CCCC2(CCN(Cc3cccc(F)c3F)C2=O)C1=O (racemic)
6. Cc1cccc(CN2CCCC3(CCCN(Cc4cccc(C)c4F)C3=O)C2=O)c1F (racemic)
7. O=C1N(Cc2ccccc2)CCCC12CCN(Cc1ccccc1F)C2=O (racemic)
8. O=C1N(Cc2ccccc2)CCC12CCCN(Cc1c(F)cccc1F)C2=O (racemic)

90
100
90
100
90
100
90
90

List the reported pre-emergence activity against DIGSA of each molecule below.
1. O=C1N(Cc2ccccc2F)CCCC12CCCN(Cc1ccccc1F)C2=O (single isomer, unassigned)
2. O=C1N(Cc2ccccc2F)CCCC12CCN(Cc1c(F)cccc1F)C2=O (racemic)
3. Cc1ccccc1CN1CCC2(CCCN(Cc3c(F)cccc3F)C2=O)C1=O (racemic)
4. O=C1N(Cc2ccccc2F)CCC12CCCN(Cc1cccc(F)c1F)C2=O (racemic)

1. 100
2. 100
3. 90
4. 90

Hey, can you go through the list below and give me pre-emergence activity against DIGSA for every item?
1. O=C1N(Cc2ccccc2F)CCC12CCCN(Cc1c(F)cccc1F)C2=O (racemic)
2. O=C1N(Cc2cccc(F)c2F)CCC12CCCN(Cc1c(F)cccc1F)C2=O (racemic)

[100, 100]

For each of the molecules below, note its pre-emergence activity against DIGSA.
1. O=C1N(Cc2ccccc2)CCCC12CCN(Cc1cccc(F)c1F)C2=O (racemic)
2. O=C1N(Cc2cnc(Br)s2)CCCC12CCCN(Cc1cnc(Br)s1)C2=O (single isomer, unassigned; (+))

[100, 90]

These data points were gathered from patent EP4273147A1.
